- PROCEDURE_DETAILS: In-vivo evaluation: phytocannabinoid serum concentrations after oral administration
- Set-up: species or system mice (C57BL/6 J)
- ASSAY_SETUP: male, C57BL/6J, mouse, mice, CME in Cremophor EL emulsion (1:1:18 EtOH:Cremophor:PBS), 5 mg CBD/kg, 90 min after dosing, average ± standard error, read-out: Serum concentration, Control group
OBSERVATION_TYPE: concentration at 90 min (ng/mL)

>>> quantitative_result("CCCCCc1cc(O)c2c(c1)OC(C)(C)[C@@H]1CCC(C)=C[C@@H]21 [THC, (—)-trans-Δ^9-tetrahydrocannabinol]")
343
>>> quantitative_result("C=C(C)[C@@H]1CCC(C)=C[C@H]1c1c(O)cc(CCCCC)cc1O")
3100
>>> quantitative_result("CCCCCc1cc(O)c2c(c1)OC(C)(CCC=C(C)C)C=C2 (stereo not shown)")
247
>>> quantitative_result("CCCCCc1cc(O)c2c(c1)OC(C)(C)c1ccc(C)cc1-2")
100
